- Test system: T-T (Esophageal Squamous Cell Carcinoma)
- assay protocol: combination Emax (second highest fraction inhibited in the dose matrix, 72 h); higher = more inhibition; extreme values may be limits of the assay
Below, each entry is listed alongside its reported combination Emax.
API note: the answer field is a bare number with no unit suffix.

1) Cc1cc2ncnn2cc1Nc1ncc2c(n1)n(C1CCOCC1)c(=O)n2C [AZD7648] + CN(C)CCCOc1ccc(-c2ccc3ncc4c(c3c2)n(C2CCOCC2)c(=O)n4C)cn1 [AZD0156] (first compound max 10 µM, 7x7, partner max 1 µM) | 0.246

Ask: Give its combination Emax value. Item: NC1(C(=O)N[C@@H](CCO)c2ccc(Cl)cc2)CCN(c2ncnc3[nH]ccc23)CC1 [Capivasertib] + COc1nnc2ccc(N3CCC(c4ccc(OCCN5CCN(C)C(=O)[C@H]5C)cc4)CC3)nn12 [AZD5153] (first compound max 10 µM, 7x7, partner max 1 µM)
Result: 0.527

Ask: Also check CCc1c2c(nc3ccc(O)cc13)-c1cc3c(c(=O)n1C2)COC(=O)[C@]3(O)CC [SN-38] + O=C(c1cc(Cc2n[nH]c(=O)c3ccccc23)ccc1F)N1CCN(C(=O)C2CC2)CC1 [Olaparib] (first compound max 0.3 µM, 7x7, partner max 10 µM)
Result: 0.835

Ask: Also check Cc1cc2ncnn2cc1Nc1ncc2c(n1)n(C1CCOCC1)c(=O)n2C [AZD7648] + COc1cc([C@@H]2c3cc4c(cc3[C@@H](O[C@@H]3O[C@@H]5CO[C@@H](C)O[C@H]5[C@H](O)[C@H]3O)[C@H]3COC(=O)[C@H]23)OCO4)cc(OC)c1O [Etoposide] (first compound max 10 µM, 7x7, partner max 10 µM)
Result: 0.362

Ask: Also check CN(C)CCCOc1ccc(-c2ccc3ncc4c(c3c2)n(C2CCOCC2)c(=O)n4C)cn1 [AZD0156] + O=C(c1cc(Cc2n[nH]c(=O)c3ccccc23)ccc1F)N1CCN(C(=O)C2CC2)CC1 [Olaparib] (first compound max 3 µM, partner max 3 µM)
Result: 0.346

Ask: Also check C[C@@H](Oc1cc(-c2cnn(C3CCNCC3)c2)cnc1N)c1c(Cl)ccc(F)c1Cl [Crizotinib] + Cn1cnc2c(F)c(Nc3ccc(Br)cc3Cl)c(C(=O)NOCCO)cc21 [Selumetinib] (first compound max 10 µM, 7x7, partner max 10 µM)
Result: 0.759

Ask: Also check COc1cc2ncnc(Nc3ccc(F)c(Cl)c3)c2cc1OCCCN1CCOCC1 [Gefitinib] + CC(C)n1c(=O)n(C)c2cnc3cc(F)c(-c4ccc(OCCCN5CCCCC5)nc4)cc3c21 [AZD1390] (first compound max 10 µM, 7x7, partner max 0.3 µM)
Result: 0.411

Ask: Also check N#Cc1cnc(Nc2cc(NC[C@H]3CNCCO3)c(C(F)(F)F)cn2)cn1 [SRA737] + O=c1[nH]cc(F)c(=O)[nH]1 [5-Fluorouracil] (first compound max 10 µM, 7x7, partner max 20 µM)
Result: 0.384

* * *

- Tested on: VMRC-RCZ (Kidney Carcinoma)
- assay protocol: combination Emax (second highest fraction inhibited in the dose matrix, 72 h); higher = more inhibition; extreme values may be limits of the assay
property name: combination Emax
API note: the answer field is a bare number with no unit suffix.

Below: 2 compounds and their reported combination Emax.
1. CN(C)CCCOc1ccc(-c2ccc3ncc4c(c3c2)n(C2CCOCC2)c(=O)n4C)cn1 [AZD0156] + O=C(c1cc(Cc2n[nH]c(=O)c3ccccc23)ccc1F)N1CCN(C(=O)C2CC2)CC1 [Olaparib] (first compound max 3 µM, partner max 3 µM) | 0.181
2. CS(=O)(=O)CCNCc1ccc(-c2ccc3ncnc(Nc4ccc(OCc5cccc(F)c5)c(Cl)c4)c3c2)o1 [Lapatinib] + NC1(c2ccc(-c3nc4ccn5c(=O)[nH]nc5c4cc3-c3ccccc3)cc2)CCC1 [MK-2206] (first compound max 10 µM, 7x7, partner max 10 µM) | 0.408

Ask: Give its combination Emax value. Item: CC1(C)CCC(CN2CCN(c3ccc(C(=O)NS(=O)(=O)c4ccc(NCC5CCOCC5)c([N+](=O)[O-])c4)c(Oc4cnc5[nH]ccc5c4)c3)CC2)=C(c2ccc(Cl)cc2)C1 [Venetoclax] + C=CCn1c(=O)c2cnc(Nc3ccc(N4CCN(C)CC4)cc3)nc2n1-c1cccc(C(C)(C)O)n1 [AZD1775] (first compound max 1 µM, partner max 1 µM)
Result: 0.467

Ask: Also check C=CCn1c(=O)c2cnc(Nc3ccc(N4CCN(C)CC4)cc3)nc2n1-c1cccc(C(C)(C)O)n1 [AZD1775] + C[C@@H]1COCCN1C2=NC(=NC(=C2)C3(CC3)[S@](=N)(=O)C)C4=C5C=CNC5=NC=C4 [AZD6738] (first compound max 1 µM, partner max 10 µM)
Result: 0.41

Ask: Also check CN(CCO)CC[C@H](CSc1ccccc1)Nc1ccc(S(=O)(=O)NC(=O)c2ccc(N3CCC([C@@H](O)c4ccccc4-c4ccc(Cl)cc4)CC3)cc2)cc1S(=O)(=O)C(F)(F)F [AZD4320] + CS(=O)(=O)CCNCc1ccc(-c2ccc3ncnc(Nc4ccc(OCc5cccc(F)c5)c(Cl)c4)c3c2)o1 [Lapatinib] (first compound max 1 µM, 7x7, partner max 10 µM)
Result: 0.598

Ask: Also check CN(CCO)CC[C@H](CSc1ccccc1)Nc1ccc(S(=O)(=O)NC(=O)c2ccc(N3CCC([C@@H](O)c4ccccc4-c4ccc(Cl)cc4)CC3)cc2)cc1S(=O)(=O)C(F)(F)F [AZD4320] + CC(=O)O[C@H]1C(=O)[C@@]2(C)[C@H]([C@H](OC(=O)c3ccccc3)[C@]3(O)C[C@H](OC(=O)[C@H](O)[C@@H](NC(=O)c4ccccc4)c4ccccc4)C(C)=C1C3(C)C)[C@]1(OC(C)=O)CO[C@@H]1C[C@@H]2O [Paclitaxel] (first compound max 1 µM, 7x7, partner max 3 µM)
Result: 0.693

The origin of these recorded values is the supplement of paper PMC11061612.
